assay: amyloid nucleation score (Sup35N fusion, yeast selection) (log enrichment); library NNK3; higher = more nucleation; inactive = no reads after selection;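 note: zero at mode of non-aggregating sequences after 7 days selection at 30°C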
observable: amyloid nucleation score

The following substances have reported results that may help.
[
  {
    "substance": "TLIQFSLMCVYFSDFLPKAF",
    "amyloid nucleation score": "inactive"
  },
  {
    "substance": "FNITGRVSYSIVTLCFMQCK",
    "amyloid nucleation score": 2.75
  },
  {
    "substance": "NLLYSCVYRHQPLYPAMDFP",
    "amyloid nucleation score": "inactive"
  },
  {
    "substance": "SFFARGVFFAIRQARQGNSG",
    "amyloid nucleation score": "inactive"
  },
  {
    "substance": "RRELWRLRTVVCTMNLLYYA",
    "amyloid nucleation score": "inactive"
  }
]

Entry under test: `VFCVRRSLQNLRNSGNDSHR` . Its amyloid nucleation score was inactive

Entry under test: `VSDKHVYCMEGCMP` . Its amyloid nucleation score was inactive

Entry under test: `NCMYSLSMQREPFYPSRGVD` . Its amyloid nucleation score was inactive

Entry under test: `RRFIIPRAVAFTSL` . Its amyloid nucleation score was inactive

Entry under test: `SSFGTQLYWNMSKCRFTRGT` . Its amyloid nucleation score was 1.16

Entry under test: `IDVSCMQNNILRRIGFHV` . Its amyloid nucleation score was inactive

Entry under test: `EGSIQMWTGTSLLDTRIWGG` . Its amyloid nucleation score was inactive

Entry under test: `LNKVIRCEAYRCKTMN` . Its amyloid nucleation score was inactive

Entry under test: `SMRQSFQWCYHSAECYVHSG` . Its amyloid nucleation score was 0.337

Entry under test: `SLLFFRWDIWTVASGYD` . Its amyloid nucleation score was inactive

Entry under test: `DSIFSWSFRGFSCVN` . Its amyloid nucleation score was inactive

Entry under test: `PSLCFSAVQLRLPRDVFLKY` . Its amyloid nucleation score was inactive

Entry under test: `DMKNWPKDYQ` . Its amyloid nucleation score was inactive

Entry under test: `RPWHPLLTSDVVNCWLKIRV` . Its amyloid nucleation score was inactive

Entry under test: `GNRLALVYLGRILPL` . Its amyloid nucleation score was inactive

----------
test: amyloid nucleation score (Sup35N fusion, yeast selection) (log enrichment); library NNK3; higher = more nucleation; inactive = no reads after selection
observable: amyloid nucleation score

The following sequences have reported results that may help.
[
  {
    "primary.sequence": "QCDVCVCCVARAEAVRRILG",
    "observable": "amyloid nucleation score",
    "result": 2.33
  },
  {
    "primary.sequence": "FYYYLCYDIVAISVLMNLPY",
    "observable": "amyloid nucleation score",
    "result": "inactive"
  },
  {
    "primary.sequence": "HFCSGSINMMNFLSKDYKMQ",
    "observable": "amyloid nucleation score",
    "result": 2.39
  },
  {
    "primary.sequence": "LDFRLFGFPDKNEHYGGEYK",
    "observable": "amyloid nucleation score",
    "result": "inactive"
  }
]

Entry under test: `QSEICLSWCIQSVGDVVDYR` . Its amyloid nucleation score was inactive

Entry under test: `CPMVLSQEGSTAPEQCVGLG` . Its amyloid nucleation score was inactive

Entry under test: `QRSSHGPLGCLSDLQLNTLR` . Its amyloid nucleation score was -0.882

Entry under test: `VRFYVAYFILFSDATAMALK` . Its amyloid nucleation score was inactive

Entry under test: `NMVYLGDLTITMSTFDAFR` . Its amyloid nucleation score was 0.53

Entry under test: `RVKQQLNLP` . Its amyloid nucleation score was inactive

Entry under test: `PREWLGVLLMTVLNFWMTVV` . Its amyloid nucleation score was inactive

Entry under test: `RSRKLCNPIMILLQVFGNYG` . Its amyloid nucleation score was 1.43

Entry under test: `DDIRCMFRTADFRAKMSVNS` . Its amyloid nucleation score was inactive

Entry under test: `HPMRGDVGSRAVFRMGHFIH` . Its amyloid nucleation score was inactive

Entry under test: `NRYLLRVVLYNSLTRLTVGF` . Its amyloid nucleation score was inactive

Entry under test: `DLVPVIHGIYWAG` . Its amyloid nucleation score was inactive

----------
experiment: amyloid nucleation score (Sup35N fusion, yeast selection) (log enrichment); library NNK3; higher = more nucleation; inactive = no reads after selection
observable: amyloid nucleation score

[
  {
    "substance": "CVGMEVCGWEGS",
    "amyloid nucleation score": "inactive"
  },
  {
    "substance": "LPFIRV",
    "amyloid nucleation score": 0.007
  },
  {
    "substance": "SYNFRDCYQCLRDKVDKICA",
    "amyloid nucleation score": "inactive"
  },
  {
    "substance": "RSYARRSTGILAR",
    "amyloid nucleation score": -0.112
  },
  {
    "substance": "RNANSNWSRPVLNAWSLNEV",
    "amyloid nucleation score": "inactive"
  },
  {
    "substance": "SSVYCL",
    "amyloid nucleation score": -0.781
  }
]

Entry under test: `GVSYMNCTHWTL` . Its amyloid nucleation score was inactive

Entry under test: `MYLDIESDMSNTGAE` . Its amyloid nucleation score was inactive

Entry under test: `MNSVHYNDHPHDAVKFTISI` . Its amyloid nucleation score was inactive

Entry under test: `VSDRVSLSVGG` . Its amyloid nucleation score was inactive

Entry under test: `TFRICADMCCTGVR` . Its amyloid nucleation score was 1.45

Entry under test: `LGSLPGGETLHCLNRFQRLS` . Its amyloid nucleation score was inactive

Entry under test: `GQYPEYYWYLGTEFFTVVLF` . Its amyloid nucleation score was inactive

Entry under test: `GCNNVH` . Its amyloid nucleation score was inactive

Entry under test: `NRDNAEQYYRPTVTVCSEGW` . Its amyloid nucleation score was inactive

----------
assay: amyloid nucleation score (Sup35N fusion, yeast selection) (log enrichment); library NNK2; higher = more nucleation; inactive = no reads after selection
observable: amyloid nucleation score

[
  {
    "primary.sequence": "FFVPYDSYTYHLILFLKQLV",
    "amyloid nucleation score": -0.535
  },
  {
    "primary.sequence": "AEQRWTVRIVLSYYVSKINI",
    "amyloid nucleation score": 0.316
  },
  {
    "primary.sequence": "LFFTFSKKFAR",
    "amyloid nucleation score": 3.48
  },
  {
    "primary.sequence": "VSFSSNHGFAMVRLSWSQKR",
    "amyloid nucleation score": 5.49
  }
]

Entry under test: `WYVYSESRIS` . Its amyloid nucleation score was -0.267

Entry under test: `SKLNAHVLAVFRLNEMNNHQ` . Its amyloid nucleation score was 3.48

Entry under test: `FLSVEENGLTDVTVMGWFV` . Its amyloid nucleation score was 0.19

Entry under test: `DACAFVCLYWNVLTRFELMP` . Its amyloid nucleation score was -0.458

Entry under test: `MTWGSISNNLVTRTTPTYIC` . Its amyloid nucleation score was 0.178

Entry under test: `SVGGETITRWKCIWMTRRTE` . Its amyloid nucleation score was 1.77

Entry under test: `YCCGGRIRKSRLINFYVTWS` . Its amyloid nucleation score was -0.046

Entry under test: `RLPAFSRFG` . Its amyloid nucleation score was -0.452

Entry under test: `NVDLFWQWVYVYWRGARVEF` . Its amyloid nucleation score was 0.075

Entry under test: `ISWIFLKSAFTELAVFWDFI` . Its amyloid nucleation score was 0.726

Entry under test: `KVLFTGFFANVGFSSSVRAN` . Its amyloid nucleation score was -0.567

Entry under test: `PMSFTLNRRQRRLHMLRTNN` . Its amyloid nucleation score was 0.854

----------
assay: amyloid nucleation score (Sup35N fusion, yeast selection) (log enrichment); library NNK3; higher = more nucleation; inactive = no reads after selection
observable: amyloid nucleation score

[
  {
    "substance": "LVGFRTGTALLDQMAL",
    "result": "inactive"
  },
  {
    "substance": "ASRIDINRIWFVFWIQAIKS",
    "result": "inactive"
  },
  {
    "substance": "NSKYLLD",
    "result": "inactive"
  }
]

----------
assay: amyloid nucleation score (Sup35N fusion, yeast selection) (log enrichment); library NNK2; higher = more nucleation; inactive = no reads after selection
Ranges used to classify amyloid nucleation score: lower segment (below -0.03), middle segment (-0.03 to below 0.8), upper segment (0.8 or more)

[
  {
    "primary.sequence": "SSKRVMKYRCDRWMADTCRK",
    "cat": "middle segment"
  }
]

Problem: Form field 'band' for `FVRNKLMADFFWLGFYN`
Solution: lower segment

----------
test: amyloid nucleation score (Sup35N fusion, yeast selection) (log enrichment); library NNK2; higher = more nucleation; inactive = no reads after selection
observable: amyloid nucleation score
Just the number, please, no unit after it.

The following substances have reported results that may help.
[
  {
    "substance": "QLRRFERMLSLVM",
    "amyloid nucleation score": 1.31
  },
  {
    "substance": "WTSLSNVFRLTNMYTRVSKW",
    "amyloid nucleation score": -0.55
  },
  {
    "substance": "FRTTALLRFKRWDYGVIRNR",
    "amyloid nucleation score": 0.021
  },
  {
    "substance": "YGILCAKLTAVCL",
    "amyloid nucleation score": 1.44
  },
  {
    "substance": "LSLMTSLRWIGHSSFIVSKP",
    "amyloid nucleation score": -0.168
  }
]

Entry under test: `LYFRVNDEGVHFTCEGQKKE` . Its amyloid nucleation score was 1.46

Entry under test: `RLSVAFRRVRDRYVLLIFLP` . Its amyloid nucleation score was 0.548

Entry under test: `MGRDLLASDSTCVGRVQGKL` . Its amyloid nucleation score was 0.965

Entry under test: `EVTWDVLAIVLTLMKKA` . Its amyloid nucleation score was 4.27

Entry under test: `QDNFQFFAVSMRGCDCTGVS` . Its amyloid nucleation score was 6.96

Entry under test: `PWHTSFALERKDMGHK` . Its amyloid nucleation score was -0.094

Entry under test: `TLGMYFFVSMLSLLVSVNGF` . Its amyloid nucleation score was -0.427

Entry under test: `TISDTCHESRLDVMRNVPYM` . Its amyloid nucleation score was 5.09
